- measurement-target: human sAC (Homo sapiens)
- Construct: made in house
- protocol-notes: in vitro adenylyl cyclase assay with purified human sAC protein (cAMP by Correlate-EIA)
- Format: biochemical
- measurement-context: BASAL activity of human sAC in vitro (just Mg-ATP, no calcium or bicarbonate); read-out: hsACt-Basal approximate IC50 (or the dose range where the IC50 should lie)
- Procedure: Purified human sAC protein was used in an in vitro adenylyl cyclase assay. Purification of the protein is described in detail in Litvin et al. 2003. (J. Biol. Chem. 278:15922-15926). This paper also describes the general conditions for a sAC cyclase assay. The specific conditions for the in vitro assay are as follows. […] Cyclic AMP levels were measured in each sample using the Correlate-EIA Direct Cyclic AMP assay kit from Assay Designs as per manufacturers instructions.
pIC50: −log10 of the molar value.
measured-endpoint: pIC50

Use the examples below as a reference point.
O=C(CSc1nc2ccccc2[nH]1)N/N=C/c1cc(Br)ccc1F; 4.00 to 5.00
O=C(CSc1nc2ccccc2[nH]1)N/N=C/c1cccnc1; < 4.00
CCCOc1ccc(/C=N/NC(=O)CSc2nc3ccccc3[nH]2)cc1; 4.00 to 5.00
O=C(CSc1nc2ccccc2[nH]1)N/N=C/c1ccccc1C(=O)O; < 4.00

Which pIC50 value belongs to COc1ccc(/C=N/NC(=O)CSc2nc3ccccc3[nH]2)cc1 ?
< 4.00

---

- measurement-target: human sAC (Homo sapiens, UniProt Q96PN6)
- Construct: made in house
- protocol-notes: in vitro adenylyl cyclase assay with purified human sAC protein (cAMP by Correlate-EIA)
- Format: biochemical
- measurement-context: BASAL activity of human sAC in vitro (just Mg-ATP, no calcium or bicarbonate); read-out: hsACt-Basal approximate IC50 (or the dose range where the IC50 should lie)
pIC50: −log10 of the molar value.
measured-endpoint: pIC50

O=C(CSc1nc2ccccc2[nH]1)N/N=C/c1cc(Br)cc(Br)c1O; 6.00
O=C(CSc1nc2ccccc2[nH]1)N/N=C/c1cccc(Br)c1; 4.00 to 5.00
O=C(CSc1nc2ccccc2[nH]1)N/N=C/c1ccccc1I; 4.00 to 5.00

Which pIC50 value belongs to CC(Sc1nc2ccccc2[nH]1)C(=O)N/N=C/c1ccc([N+](=O)[O-])cc1 (stereo not drawn) ?
4.00 to 5.00

Another compound to check: O=C(CSc1nc2ccccc2[nH]1)N/N=C/c1cccc(F)c1
< 4.00

Another compound to check: C/C(=N/NC(=O)CSc1nc2ccccc2[nH]1)c1ccc(-c2ccccc2)cc1
4.00 to 5.00

Another compound to check: O=C(CSc1nc2ccccc2n1Cc1ccc(Cl)cc1)N/N=C\c1cc(Br)ccc1O
6.00

Another compound to check: O=C(CSc1nc2ccccc2[nH]1)N/N=C/c1ccccc1Br
4.00 to 5.00

Another compound to check: COc1cc(/C=N/NC(=O)CSc2nc3ccccc3[nH]2)cc(OC)c1OC(C)=O
< 4.00

---

- measurement-target: human sAC (Homo sapiens, UniProt Q96PN6)
- Construct: made in house
- Sequence (Q96PN6 1-469 limits assumed): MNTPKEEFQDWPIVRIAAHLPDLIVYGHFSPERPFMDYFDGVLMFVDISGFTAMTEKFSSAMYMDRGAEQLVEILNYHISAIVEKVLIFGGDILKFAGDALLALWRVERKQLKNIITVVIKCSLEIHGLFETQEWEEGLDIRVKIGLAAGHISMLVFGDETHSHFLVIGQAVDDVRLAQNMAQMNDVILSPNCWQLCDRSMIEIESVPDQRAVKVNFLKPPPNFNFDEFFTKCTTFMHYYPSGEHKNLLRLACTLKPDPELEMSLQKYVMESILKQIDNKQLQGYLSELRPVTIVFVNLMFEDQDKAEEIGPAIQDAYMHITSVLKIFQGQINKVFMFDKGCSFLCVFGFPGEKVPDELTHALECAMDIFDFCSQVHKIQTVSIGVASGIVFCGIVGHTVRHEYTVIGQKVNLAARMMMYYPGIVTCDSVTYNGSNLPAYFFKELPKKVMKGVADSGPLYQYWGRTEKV
- protocol-notes: in vitro adenylyl cyclase assay with purified human sAC protein (cAMP by Correlate-EIA)
- Format: biochemical
- measurement-context: BASAL activity of human sAC in vitro (just Mg-ATP, no calcium or bicarbonate); read-out: hsACt-Basal approximate IC50 (or the dose range where the IC50 should lie)
measured-endpoint: IC50

Use the examples below as a reference point.
C/C(=N/NC(=O)CSc1nc2ccccc2[nH]1)c1ccc(Cl)c(Cl)c1 [KH7.115]; 10 to 100 µM
COc1ccc(/C=N/NC(=O)CSc2nc3ccccc3[nH]2)cc1Br [KH7.151]; 10 to 100 µM
C/C(=N/NC(=O)CSc1nc2ccccc2[nH]1)c1cccc(Br)c1 [KH7.119]; 10 to 100 µM
C/C(=N\NC(=O)CSc1nc2ccccc2[nH]1)c1ccc([N+](=O)[O-])cc1 [KH7.138]; > 100 µM

API: the following record is the query input.
Param readout= IC50; system= human sAC (Homo sapiens, UniProt Q96PN6); entry= C/C(=N\NC(=O)CSc1nc2ccccc2[nH]1)c1ccco1 [KH7.109] ; returns value.
> 100 µM
